# System: 5-2 Luc cells, 9-13 cells or Huh-7 cells
# test: Cytotoxicity assay (Cell Titer Glo)
# cond: read-out: IC50 cytotoxicity (number of viable cells), liver cells including an HCV replicon, 24 hr
measurementName: pIC50
pIC50 here is simply -log10 of the concentration when that concentration is written in mol/L.

So for Cc1cc(C)c(-c2cc(-c3cccc(NC(=O)C(Cl)Cl)c3)on2)c(C)c1 [Compound 69] , the logged pIC50 turned out to be 5.52

----------
# testedOn: HCV replicon
# test: HCV replicon assay (luciferase)
# cond: 5-2 Luc replicon cells, 24 hours with compound, luciferase emission; first symbol of Replicon/Western
pIC50: −log10 of the molar value.
measurementName: pIC50

CC(C)c1ccccc1-c1cc(-c2cccc(NC(=O)C(Cl)Cl)c2)on1 ... ≥ 5.00
CN(C(=O)C(Cl)Cl)c1cccc(-c2cc(-c3c(Cl)cccc3Cl)no2)c1 ... ≥ 5.00

Measured pIC50, O=C(Nc1cccc(-c2cc(-c3cc(C(F)(F)F)ccc3Cl)no2)c1)C(Cl)Cl : < 5.00

Value of measured pIC50 for the entry Cc1cccc(C)c1-c1cc(-c2cccc(NC(=O)C(Cl)Cl)c2)on1 : ≥ 5.00

Lab note: measured pIC50 of Cc1cccc(C(F)(F)F)c1-c1cc(-c2cccc(NC(=O)C(Cl)Cl)c2)on1 was ≥ 5.00

For O=C(Nc1cccc(-c2cc(-c3c(Cl)cccc3Cl)no2)c1)C(F)F the compound record lists pIC50 as < 5.00

// recorded pIC50 for O=C(O)c1ccc(Cl)c(-c2cc(-c3cccc(NC(=O)C(Cl)Cl)c3)on2)c1Cl : < 5.00
